# Test system: T-47D breast
# EXPERIMENT DESCRIPTION: NCI-60 one-dose screen, 48 h (100 = growth as untreated, 0 = no growth, -100 = all killed)
# DETAILS: 10 µM unless noted
Compounds without any hit were thinned out: in the full panel of roughly 83,000, 20% have a hit.
OBSERVATION TYPE: growth (%)
Just the number please, in %, no unit attached.

**Q:** growth for COc1ccc(-c2[nH]c3ccccc3c2-c2ccc(OC)cc2)cc1 ?
**A:** 41.1

**Q:** # input molecule: CN(C)CCCn1c2nc(=O)[nH]c(=O)c-2nc2cc(Cl)c(Cl)cc21 ; wanted: its growth
**A:** 34.8

**Q:** Requested field: growth. Item: O=c1c(/C=C/c2ccco2)nnc2sc(Nc3ccc(Cl)cc3)nn12
**A:** 88.2

**Q:** Would you kindly share the measured growth for COc1cc(NS(=O)(=O)C(C)C)cc(-c2cc(-c3ccc(N4CCNCC4)cc3)cnc2N)c1 ?
**A:** 81.9

**Q:** For the molecule shown here, C=C(C)[C@@H]1CC[C@]2(C(=O)N3CCN(C)CC3)CC[C@]3(C)[C@H](CC[C@@H]4[C@@]5(C)CC(CCCNC(C)=O)(CCCNC(C)=O)[C@H](OC(C)=O)C(C)(C)[C@@H]5CC[C@]43C)[C@@H]12 , give the reported growth.
**A:** 89.9

**Q:** Name the recorded growth for CCOC(=O)c1cnn(-c2ccc(S(N)(=O)=O)cc2)c1N .
**A:** 103

**Q:** Quick one: growth for O=C1/C(=C/c2ccc(-c3cccc(C(F)(F)F)c3)o2)SC(=S)N1CCc1ccc(O)cc1 ?
**A:** 53.8

**Q:** Can you share its growth? I mean this molecule: O=C(Nc1ncc(Cc2cccc(C(F)(F)F)c2)s1)c1ccc(-n2cnnn2)cc1
**A:** 44.7

**Q:** Find the recorded growth belonging to CCN(CC)CCCN1C(=O)c2c(c(C)c3c(oc4cc(OC)ccc43)c2C)C1=O and report it.
**A:** 112

----------
Consider the following molecules; for each one, report its growth.
# System: KM12 colon
# EXPERIMENT DESCRIPTION: NCI-60 one-dose screen, 48 h (100 = growth as untreated, 0 = no growth, -100 = all killed)
# DETAILS: 10 µM unless noted
About 83,000 compounds went through this panel and 20% of them were active in at least one assay; those are over-represented in the sample as a whole.
Give the quantity in %, number only.

**Q:** If you can, please state the reported growth value of COc1ccc(/C=C/C(=O)c2cc3c(N)c(C(=O)Nc4ccccc4)sc3nc2C)cc1 .
**A:** 6.61

**Q:** Given the entry COc1cc2nc3cc([N+](=O)[O-])ccc3c(NCCNCC(C)(C)O)c2cc1OC , report its measured growth.
**A:** -7.24

**Q:** Entry OCc1cc(CN2CCCCC2)c(O)c2ncccc12 has what growth?
**A:** 30.2

**Q:** // growth lookup, key: CCCn1nc(C(=O)N2CCCCC2)c2c1CCC(N1CCC(c3ccncc3)CC1)C2 (stereo not given)
**A:** 103

**Q:** Which growth is listed for N#Cc1cc(-c2ccnc(Nc3ccc(NC(=O)CCl)cc3)n2)ccc1N1CCCC1 ?
**A:** -11.6

**Q:** Quick one: growth for O=C(Nc1ncc(Cc2cccc(C(F)(F)F)c2)s1)c1ccc(-n2cnnn2)cc1 ?
**A:** 28.8

**Q:** I have this molecule here, Cc1cccc(-c2nnc(SCC(=O)Nc3ncc(Cc4ccccc4)s3)n2N2C(=O)CSC2=S)c1 , and I need its recorded growth.
**A:** 71.7

**Q:** I have this molecule here, Brc1ccc(/C=C(/C2=NCCN2)n2ccc3ccccc32)cc1 , and I need its recorded growth.
**A:** 80.4

**Q:** Given the molecule COc1ccc2c(c1)c(-c1nc(-c3c[nH]c4c(Cl)nccc34)cs1)cn2C , what is its reported growth?
**A:** 30.8

**Q:** Using the record for Fc1ccc(NC(c2ccc(F)cc2)C2CCN(CCCCc3ccccc3)CC2)cc1 (stereo not given) , report its growth.
**A:** 29.9

----------
For each record, write down the corresponding growth.
# System: CAKI-1 renal
# EXPERIMENT DESCRIPTION: NCI-60 one-dose screen, 48 h (100 = growth as untreated, 0 = no growth, -100 = all killed)
# DETAILS: 10 µM unless noted
The panel holds about 83,000 compounds, 20% with a hit somewhere; the sample as a whole holds those more often.
Value expressed in %; do not type the unit.

**Q:** Entry O=C1CCCCN1CCCCC#Cc1cccc(C#Cc2cccnc2)c1 : reported growth = ?
**A:** 84.4

**Q:** Which growth is listed for Nc1ncc(-c2ccc3ncnc(N4CCc5ccc(Cl)cc54)c3c2)cc1C(F)(F)F ?
**A:** -9.77

**Q:** Fill in the blank: the reported growth of CCCc1cc(C(N)=S)ccn1 is ____.
**A:** 96.1

**Q:** Look up growth: CN1CCN(Cc2ccc(NC(=O)c3cccc(C#Cc4c(N)ncc5ccc(F)cc45)c3)cc2C(F)(F)F)CC1
**A:** -98.5

**Q:** Which value of growth has been reported for C=C(C)[C@@H]1CC[C@]2(C(=O)O)CC[C@]3(C)[C@H](CC[C@@H]4[C@@]5(C)CCC(N)C(C)(C)[C@@H]5CC[C@]43C)[C@@H]12 (stereo partly drawn) in the records?
**A:** 48.6

**Q:** GET /values?readout=growth&item= COc1ccc(/C=C2/C(=O)N=C3N2NC(c2ccccc2)=CN3c2ccccc2)cc1
**A:** 88.4

**Q:** Consider the molecule shown here: CCCCC1COc2cccc3c2N1C=C/C3=C\C(=O)N(C)c1cccc(Cl)c1 (stereo not drawn) What is its recorded growth?
**A:** 78.9

**Q:** Name the recorded growth for CC(=O)N1N=C(c2ccc(Nc3nc(Nc4ccc(F)cc4)nc(Nc4ccc(F)cc4)n3)cc2)CC1c1ccccc1 (stereo not drawn) .
**A:** 114

**Q:** Look at this molecule and give its reported growth. O=C1c2cc3c(cc2-c2c1c1ccc(Cl)cc1c(=O)n2CCCn1ccnc1)OCO3
**A:** 9.62

**Q:** Could you share which growth value was measured for c1ccc(Cc2cccc[n+]2C(c2ccccc2)c2ccccc2)cc1 ?
**A:** 94.4

**Q:** Using the record for COc1cc(/C=C(/c2ccccc2)[N+](=O)[O-])c(OC)c2c1OCO2 , report its growth.
**A:** -65.2

**Q:** Entry CCN(C(=O)N1CCN(c2cc3c(cc2F)c(=O)c(C(=O)O)cn3C2CC2)CC1)c1nc(-c2ccccc2)cs1 has what growth?
**A:** 29.4

**Q:** Return reported growth; argument: C=CCNC(=O)Cc1c(-c2ccc(OC)cc2)oc2c(OC)c3c(c(OC)c12)OCO3
**A:** 87.8

**Q:** Can you look up the measured growth of Clc1ccc(Nc2nc(Nc3ccc(Cl)cc3)nc(Nc3ccc(-c4cc(-c5cccc(Cl)c5)on4)cc3)n2)cc1 for me?
**A:** 85.4

**Q:** I would be grateful if you could share the reported growth for COc1ccc2c(c1)CCNC21C(=O)Nc2c(Br)cc(Br)cc21 (stereo not drawn) .
**A:** 82.8

**Q:** Value lookup for growth; key = C=C(CN1CC=CCC1)[C@@H]1CC[C@]2(COC(C)=O)CC[C@]3(C)[C@H](CC[C@@H]4[C@@]5(C)CC[C@H](O)C(C)(C)[C@@H]5CC[C@]43C)[C@@H]12
**A:** 107

**Q:** If you can, please state the reported growth value of S=c1nc(CS)[nH]c2ccccc12 .
**A:** 77.1

**Q:** Which growth is reported for this molecule? CCCO/N=C/c1ccccn1
**A:** 109

**Q:** Please look up its growth: CCN1C(=O)N(c2ccccc2)C2NC(=S)N(/N=C/C=C/c3ccccc3)C21 (stereo not drawn)
**A:** 29.6

**Q:** // growth lookup, key: COc1ccc(/C=C/C(=O)c2cc3c(N)c(C(=O)Nc4ccccc4)sc3nc2C)cc1
**A:** 23.1

**Q:** Entry CCCCC(NC(=O)CN1C(=O)/C(=C/C(C)=C/c2ccccc2)SC1=S)C(=O)O (stereo not drawn) has what growth?
**A:** 89.2

**Q:** Can you look up the measured growth of O=C(NCCCN1CCCCC1)c1ccc(-c2nc3ccc4[nH]ncc4c3c3c2CCCC3)cc1 for me?
**A:** 10.9

**Q:** // query growth value for entry N#CC1=C(N)Oc2c(sc3c(Br)cccc23)C1c1ccccn1 (stereo not drawn)
**A:** 87.4

**Q:** Value lookup for growth; key = COCCn1cc(-c2csc(-c3cn(C)c4ccc(F)cc34)n2)c2cccnc21
**A:** 84

**Q:** Consider the molecule Fc1ccc(NC(c2ccc(F)cc2)C2CCN(CCCCc3ccccc3)CC2)cc1 (stereo not drawn) and give its measured growth.
**A:** 49.1

**Q:** Query: growth; subject: CCN(CC)/C([O-])=c1\cccc\c1=C1\N=C(c2ccccc2)N=C1[n+]1ccc(-c2ccccc2)cc1
**A:** 99.9

**Q:** Request the reported growth associated with Fc1ccccc1-c1cnn2cc(-c3ccccc3)cnc12
**A:** 88.8

**Q:** Item under review: Cn1cc(-c2csc(-c3cn(CCOC(N)=O)c4ccccc34)n2)c2cccnc21 . Reported growth?
**A:** 88.2

**Q:** Entry COc1cc(/C=C2\C(=O)N(CCCCn3c4ccccc4c(=O)c4ccccc43)c3ccccc32)cc(OC)c1O : reported growth = ?
**A:** 52

**Q:** Need growth of Nc1ccc(/C=N/Nc2ccnc3c(N)cccc23)c2cccnc12 , thanks.
**A:** 31.9

**Q:** Need growth, item COc1ccc(CCNC(=O)COc2cc3c(Nc4ccc(F)c(Cl)c4)ncnc3cc2OC)cc1OC
**A:** 46.5

**Q:** # lookup: growth of Cc1nc2cccc(NCCCCC(=O)NO)c2c(=O)n1-c1ccccc1
**A:** 55.6

**Q:** I have this molecule here, COc1nc2ccc(C)cc2cc1/C=[N+](\[O-])c1ccccc1 , and I need its recorded growth.
**A:** 82.3

**Q:** Please report the recorded growth for CN1C(=O)N(C)C2(c3ccccc3)N(CC(=O)Nc3ccccc3O)C(=O)NC12c1ccccc1 (stereo not drawn) .
**A:** 74.1

**Q:** What value of growth has been recorded for this entry: COc1ccc2c(O)c(/C=C3\N=Nc4nc(C)ccc43)oc2c1CC1CCNCC1
**A:** 83.1

**Q:** # get_value(readout='growth', item= CCCCCO/N=C\c1c2c(O)c3c(O)c(C)c4c(c3c1O)C(=O)C(C)(O/C=C\C(OC)C(C)C(OC(C)=O)C(C)C(O)C(C)C(O)C(C)/C=C\C=C(\C)C(=O)N2)O4 (stereo not drawn) )
**A:** 14.9

**Q:** What does the record list as growth for CCOC(=O)c1nc2c3ccccc3cnn2c1C(=O)c1ccc(OC)cc1 ?
**A:** 86.9

**Q:** If you can, please state the reported growth value of COc1ccc(/C=C/C(=O)c2cc3c(N)c(C(=O)Nc4ccccc4Cl)sc3nc2C)cc1 .
**A:** 31.9
